Biological target: NACHT, LRR and PYD domains-containing protein 3 (Mus musculus, UniProt Q8R4B8)
Sequence (Q8R4B8 whole entry, the tested form may be a part): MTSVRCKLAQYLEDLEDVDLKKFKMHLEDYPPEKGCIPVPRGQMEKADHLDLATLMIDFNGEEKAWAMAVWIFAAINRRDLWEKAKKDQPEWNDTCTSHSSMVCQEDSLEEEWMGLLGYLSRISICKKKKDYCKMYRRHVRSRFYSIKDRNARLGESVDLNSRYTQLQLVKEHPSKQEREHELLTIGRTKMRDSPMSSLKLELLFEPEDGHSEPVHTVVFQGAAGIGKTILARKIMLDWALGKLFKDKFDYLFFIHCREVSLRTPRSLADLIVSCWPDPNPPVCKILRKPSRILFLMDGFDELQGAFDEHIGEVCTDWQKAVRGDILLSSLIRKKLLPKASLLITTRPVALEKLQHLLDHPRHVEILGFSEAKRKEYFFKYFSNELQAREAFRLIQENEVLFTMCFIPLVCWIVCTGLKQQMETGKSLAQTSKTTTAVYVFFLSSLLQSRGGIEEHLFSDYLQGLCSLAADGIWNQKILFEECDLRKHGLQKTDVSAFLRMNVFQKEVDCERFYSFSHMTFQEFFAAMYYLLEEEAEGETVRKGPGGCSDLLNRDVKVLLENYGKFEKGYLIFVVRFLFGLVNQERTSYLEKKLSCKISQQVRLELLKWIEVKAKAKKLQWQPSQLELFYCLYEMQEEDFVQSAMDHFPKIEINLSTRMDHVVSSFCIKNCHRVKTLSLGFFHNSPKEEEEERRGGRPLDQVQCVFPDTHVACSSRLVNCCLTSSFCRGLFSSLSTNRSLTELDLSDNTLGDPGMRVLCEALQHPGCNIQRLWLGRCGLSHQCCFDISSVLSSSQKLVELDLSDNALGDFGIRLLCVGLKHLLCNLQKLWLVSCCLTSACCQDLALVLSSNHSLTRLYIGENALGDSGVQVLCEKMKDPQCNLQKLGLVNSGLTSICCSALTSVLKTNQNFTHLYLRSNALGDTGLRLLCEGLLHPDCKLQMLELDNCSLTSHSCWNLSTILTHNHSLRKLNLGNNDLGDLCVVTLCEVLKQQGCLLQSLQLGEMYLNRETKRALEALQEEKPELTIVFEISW
Test: Inhibition of NLRP3 inflammasome activation in LPS-stimulated mouse bone marrow-derived macrophages assessed as reduction in IL-1beta secretion preincubated for 30 mins followed by nigericin addition and measured after 30 mins by ELISA
pIC50: −log10 of the molar value.

structure | comparativeSign | pIC50
COc1cc(/C=C/c2ccc(NC(=O)C3CCC3)cc2)c(/C=C/[N+](=O)[O-])c(OC)c1 | = | 5.85
COc1cc(/C=C/c2ccc(N)cc2)c(/C=C/[N+](=O)[O-])c(OC)c1 | = | 5.86
COc1cc(/C=C/c2ccc(OCC(=O)NCc3ccc(Br)cc3)cc2)c(/C=C/[N+](=O)[O-])c(OC)c1 | = | 5.01
COc1cc(/C=C/c2ccc(OCc3ccc(C(F)(F)F)cc3)cc2)cc(OC)c1 | < | 5.00
COc1cc(/C=C/c2ccc(OCC(=O)NCc3ccncc3)cc2)c(/C=C/[N+](=O)[O-])c(OC)c1 | = | 5.11
COc1cc(/C=C/c2ccc(O)cc2)cc(OC)c1 | < | 5.00
COc1cc(/C=C/c2ccc(OCC(=O)NCc3ccccc3)cc2)c(-c2cnn[nH]2)c(OC)c1 | < | 5.00
COc1cc(/C=C/c2ccc(O)cc2)c(/C=C/[N+](=O)[O-])c(OC)c1 | < | 5.00
COc1cc(/C=C/c2ccc(NC(=O)CCCl)cc2)c(/C=C/[N+](=O)[O-])c(OC)c1 | = | 6.12
